Cited source for all entries: ChEMBL document CHEMBL3046465

For each of the compounds below, state its MIC.
# Test system: Aspergillus fumigatus
# METHOD_DESCRIPTION: Antifungal activity against Aspergillus fumigatus ATCC 204305 assessed as growth inhibition after 46 to 50 hr by CLSI broth dilution method
# Assay type: functional

# get_value(readout= MIC, system= Aspergillus fumigatus) for CC(C)c1ccc(C2(c3ccc(O)c(O)c3)OC(=O)c3ccccc32)cc1 (stereo not given)
> 200 µg/mL

# get_value(readout= MIC, system= Aspergillus fumigatus) for CC(C)c1ccc(C2(c3ccc(O)c(O)c3O)OC(=O)c3ccccc32)cc1 (stereo not given)
> 200 µg/mL

# get_value(readout= MIC, system= Aspergillus fumigatus) for C[C@@H]1[C@H](O)[C@@H](C)/C=C/C=C/C=C/C=C/C=C/C=C/C=C/[C@H](O[C@@H]2O[C@H](C)[C@@H](O)[C@H](N)[C@@H]2O)C[C@@H]2O[C@](O)(C[C@@H](O)C[C@@H](O)[C@H](O)CC[C@@H](O)C[C@@H](O)CC(=O)O[C@H]1C)C[C@H](O)[C@H]2C(=O)O
1.25 µg/mL

# get_value(readout= MIC, system= Aspergillus fumigatus) for CC(C)c1ccc(C2(c3ccc(O)c(O)c3O)OC(=O)c3ccccc32)cc1[N+](=O)[O-] (stereo not given)
> 200 µg/mL

# get_value(readout= MIC, system= Aspergillus fumigatus) for CC(C)c1ccc(C2(c3ccc(O)c(O)c3)OC(=O)c3ccccc32)cc1[N+](=O)[O-] (stereo not given)
> 100 µg/mL
